These data points were gathered from ChEMBL document CHEMBL1201862.

# Tested on: CAKI-1
# MEASUREMENT_NOTES: NCI tumour cell line growth inhibition, 48 h
The source made the active and inactive calls. Rule as the data show it: active = GI50 up to about 1.1 µM and inactive = higher.
Consider the following compounds and their measured GI50 readings.

>  <COMPOUND>
O=C(Nc1cc(Cl)c(Cl)cc1Cl)C(=O)C(C(=O)c1ccccc1)C1OC(=O)c2ccccc21 (stereo not given)

>  <EXPERIMENTAL_SYSTEM>
CAKI-1

>  <GI50>
> 100 µM (inactive)

$$$$
>  <COMPOUND>
CN(C(=O)[C@@H](NC(=O)OC(C)(C)C)c1ccccc1)[C@H]1CCCC[C@@H]1N1CCCC1

>  <EXPERIMENTAL_SYSTEM>
CAKI-1

>  <GI50>
> 100 µM (inactive)

$$$$
>  <COMPOUND>
COCN/C(N)=N/C#N

>  <EXPERIMENTAL_SYSTEM>
CAKI-1

>  <GI50>
> 100 µM (inactive)

$$$$
>  <COMPOUND>
CCC(C#N)N(Cc1cccc(CN(C(C)=O)C(C#N)CC)c1)C(C)=O (stereo not given)

>  <EXPERIMENTAL_SYSTEM>
CAKI-1

>  <GI50>
> 100 µM (inactive)

$$$$
>  <COMPOUND>
C1=c2ccccc2=C2C(=C(c3ccccc3)C(c3ccccc3)=NN2c2ccccc2)S1

>  <EXPERIMENTAL_SYSTEM>
CAKI-1

>  <GI50>
> 100 µM (inactive)

$$$$
>  <COMPOUND>
O=C(O)C12C3CCCC1C2CC3 (stereo not given)

>  <EXPERIMENTAL_SYSTEM>
CAKI-1

>  <GI50>
> 100 µM (inactive)

$$$$
>  <COMPOUND>
C[C@]12CC[C@H](O)CC1=CC[C@@H]1C2CC[C@]2(C)Nc3c(cnn3-c3ccccc3)CC12 (stereo not given in full)

>  <EXPERIMENTAL_SYSTEM>
CAKI-1

>  <GI50>
2.96 µM (inactive)

$$$$
>  <COMPOUND>
O=c1c2cc(I)ccc2nc(SCc2nncs2)n1Cc1ccccc1

>  <EXPERIMENTAL_SYSTEM>
CAKI-1

>  <GI50>
2.15 µM (inactive)

$$$$
>  <COMPOUND>
O=C(O)c1cc(S(=O)(=O)N/N=C\c2c3ccccc3[n+]([O-])c3ccccc23)ccc1O

>  <EXPERIMENTAL_SYSTEM>
CAKI-1

>  <GI50>
45.8 µM (inactive)

$$$$
>  <COMPOUND>
CCN(CC)CCNC(=O)c1nn(C)c(=S)[nH]c1=S

>  <EXPERIMENTAL_SYSTEM>
CAKI-1

>  <GI50>
> 100 µM (inactive)

$$$$
>  <COMPOUND>
CN(C)c1ccc(/C=C2\N=C(c3ccccc3)N(/N=C3\C(=O)Nc4ccccc43)C2=O)cc1

>  <EXPERIMENTAL_SYSTEM>
CAKI-1

>  <GI50>
35.9 µM (inactive)

$$$$
>  <COMPOUND>
CC1(CC(=O)O)OC2CCCCCC2O1.NCc1ccccc1 (stereo not given)

>  <EXPERIMENTAL_SYSTEM>
CAKI-1

>  <GI50>
> 100 µM (inactive)

$$$$
>  <COMPOUND>
O=C(CCCCCCCCC(=O)OCCCn1cc(C(=O)NC(=O)OCc2ccccc2)c(=O)[nH]c1=O)OCCCn1cc(C(=O)NC(=O)OCc2ccccc2)c(=O)[nH]c1=O

>  <EXPERIMENTAL_SYSTEM>
CAKI-1

>  <GI50>
> 100 µM (inactive)

$$$$
>  <COMPOUND>
Cc1ccccc1C(CCCO)C(=O)O (stereo not given)

>  <EXPERIMENTAL_SYSTEM>
CAKI-1

>  <GI50>
> 100 µM (inactive)

$$$$
>  <COMPOUND>
CC1CCCC2=C1C(c1ccc(Cl)cc1)n1c(s/c(=C\c3ccc(Cl)cc3)c1=O)=N2 (stereo not given)

>  <EXPERIMENTAL_SYSTEM>
CAKI-1

>  <GI50>
> 100 µM (inactive)

$$$$
>  <COMPOUND>
COc1ccc(Oc2cccc(C3C4C(=O)N(c5ccc(C)c(Cl)c5)C(=O)C4ON3C(C(N)=O)c3ccccc3)c2)cc1 (stereo not given)

>  <EXPERIMENTAL_SYSTEM>
CAKI-1

>  <GI50>
21 µM (inactive)

$$$$
>  <COMPOUND>
Cn1nc(-c2ccccc2)c2c(-c3ccccc3)c3cc(Cl)ccc3nc21

>  <EXPERIMENTAL_SYSTEM>
CAKI-1

>  <GI50>
> 100 µM (inactive)

$$$$
>  <COMPOUND>
C[C@]12CC[C@H]3[C@@H](CC[C@]4(O)C[C@@H](O)CC[C@]34CO)[C@@]1(O)CC[C@@H]2C1=CC(=O)OC1

>  <EXPERIMENTAL_SYSTEM>
CAKI-1

>  <GI50>
0.494 µM (active)

$$$$
>  <COMPOUND>
O=c1c(Sc2c(O)c3ccccc3c3ccccc3c2=O)c(O)c2ccccc2c2ccccc12

>  <EXPERIMENTAL_SYSTEM>
CAKI-1

>  <GI50>
80.4 µM (inactive)

$$$$
>  <COMPOUND>
CCOC1=C2N=C(Cc3ccccc3F)N=C2C(=O)c2ccccc21

>  <EXPERIMENTAL_SYSTEM>
CAKI-1

>  <GI50>
> 100 µM (inactive)

$$$$
